test system: MDA-MB-468 breast; experiment: NCI-60 one-dose screen, 48 h; settings: 10 µM unless noted
This is part of a sample that, as a whole, favours compounds with a hit. Of some 83,000 tested, about 20% had one in any assay. Calls of active or inactive are those of the source. Rule for the calls: active = growth percent below 10; inactive = the rest.
Valid outcomes are listed here; reply with one: active, inactive

Below are worked cases with known answers.
compound	classLabel
COc1ncnc2c1cnn2C	inactive
O=C(Cc1ccccn1)C(F)(F)C(F)(F)C(F)(F)F	inactive
CSc1ccc2c3c(n(CCCn4ccnc4)c(=O)c2c1)-c1ccccc1C3=O	inactive
CN1CCCN(CCNc2nccc(-c3c(-c4cccc(O)c4)nc4sccn34)n2)S1(=O)=O	inactive
O=S(=O)(NCCCNc1nccc(-c2c(-c3cccc(O)c3)nc3occn23)n1)c1ccc(F)cc1	inactive
COc1cc(-c2nc3ccc(-c4nnc(SCC(=O)Nc5ccc(C(C)=O)cc5)o4)cc3[nH]2)cc(OC)c1OC	inactive

Hi, sorry to bother you, what did the test record for CC[C@H](Nc1nc(N)nc(C)c1C#N)c1nc2cccc(CN(C)c3ncc(C(=O)NO)cn3)c2c(=O)n1-c1ccccc1 ? active

For CC1OC(O[C@@H]2C(O)C(CO)OC(O[C@H]3COC(O[C@H]4CC[C@]5(C)[C@H]6CC[C@]78OC[C@@]9(CC[C@](C)(C=O)C[C@H]97)[C@H](O)C[C@@]8(C)[C@]6(C)CC[C@H]5C4(C)C)[C@@H](OC4OC(CO)[C@@H](O)[C@@H](O)[C@@H]4O)[C@@H]3O)[C@H]2OC2OC[C@@H](O)[C@@H](O)[C@@H]2O)[C@@H](O)[C@@H](O)[C@H]1O (stereo partly drawn) , which call appears in the assay record? inactive
